target: NK1 (Homo sapiens, UniProt P25103); assay: Signal transduction (ST), intracellular Ca++ (FLIPR), functional NK1 antagonistic activity; format: cell-based; settings: antagonist, read-out: NK1 pIC50 (converted)
Sequence (P25103 whole entry): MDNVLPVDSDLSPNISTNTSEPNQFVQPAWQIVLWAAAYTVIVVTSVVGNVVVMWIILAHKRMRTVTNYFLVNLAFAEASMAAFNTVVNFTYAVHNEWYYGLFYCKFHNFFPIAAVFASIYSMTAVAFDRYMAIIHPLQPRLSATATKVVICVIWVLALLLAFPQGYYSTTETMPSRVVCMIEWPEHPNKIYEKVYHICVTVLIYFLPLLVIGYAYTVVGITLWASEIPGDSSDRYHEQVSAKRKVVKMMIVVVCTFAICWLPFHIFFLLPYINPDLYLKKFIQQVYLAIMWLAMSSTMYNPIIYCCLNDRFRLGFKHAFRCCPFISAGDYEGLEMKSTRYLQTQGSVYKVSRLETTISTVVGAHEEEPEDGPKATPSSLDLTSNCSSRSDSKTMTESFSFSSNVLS
READOUT_TYPE: IC50 (nM)
Write the value in nM as a bare number.

Problem: Lookup: IC50 / NK1 (Homo sapiens, UniProt P25103) / `O=C(c1cc(C(F)(F)F)cc(C(F)(F)F)c1)N1CC[C@H](N2CCC3(CC2)CCN(S(=O)(=O)c2ccccc2)CC3)C[C@H]1Cc1ccccc1`
Result: 61.7

Problem: Lookup: IC50 / NK1 (Homo sapiens, UniProt P25103) / O=C(C1CCOC1)N1CCCC2(CCCN(C3CCN(C(=O)c4cc(C(F)(F)F)cc(C(F)(F)F)c4)C(Cc4ccccc4)C3)C2)C1 (single isomer, unassigned) [Compound 211]
Result: 282

Problem: Lookup: IC50 / NK1 (Homo sapiens, UniProt P25103) / `O=C1CC2(CCN1Cc1ccoc1)CCN([C@@H]1CCN(C(=O)c3cc(C(F)(F)F)cc(C(F)(F)F)c3)[C@H](Cc3ccccc3)C1)CC2`
Result: 339

Problem: Lookup: IC50 / NK1 (Homo sapiens, UniProt P25103) / CC1CC1C(=O)N1CCC2(CC1)CCN([C@H]1CCN(C(=O)c3cc(C(F)(F)F)cc(C(F)(F)F)c3)[C@H](Cc3ccccc3)C1)CC2 (stereo partly drawn)
Result: 129

Problem: Lookup: IC50 / NK1 (Homo sapiens, UniProt P25103) / `O=C(c1ccco1)N1CCCC2(CCN([C@H]3CCN(C(=O)c4cc(C(F)(F)F)cc(C(F)(F)F)c4)[C@H](Cc4ccccc4)C3)CC2)C1`
Result: 72.4

Problem: Lookup: IC50 / NK1 (Homo sapiens, UniProt P25103) / `O=C(c1cc(C(F)(F)F)cc(C(F)(F)F)c1)N1CC[C@H](CN2CCC3(CCN(Cc4ccccc4)CC3)CC2)C[C@H]1Cc1ccccc1`
Result: 437

---

Measured IC50, listed per entry for reference.
molecular target: NK1 (Homo sapiens, UniProt P25103); test: Signal transduction (ST), intracellular Ca++ (FLIPR), functional NK1 antagonistic activity; type: cell-based; details: antagonist, read-out: NK1 pIC50 (converted)
Write the value in nM as a bare number.

Consider the reported IC50 for these compounds:
O=C(CC12CC3CC(CC(C3)C1)C2)N1CCC2(CC1)CCN([C@H]1CCN(C(=O)c3cc(C(F)(F)F)cc(C(F)(F)F)c3)[C@H](Cc3ccccc3)C1)CC2 :: 324
O=C(C1CCN(C(=O)c2cc(C(F)(F)F)cc(C(F)(F)F)c2)C(Cc2ccccc2)C1)N1CCC2(CCN(Cc3ccccc3)CC2)CC1 (stereo not drawn) :: 81.3

Now examine the next entry.
Problem: Lookup: IC50 / NK1 (Homo sapiens, UniProt P25103) / O=C(C1CCOC1)N1CCC2(CC1)CCN([C@H]1CCN(C(=O)c3cc(C(F)(F)F)cc(C(F)(F)F)c3)[C@H](Cc3ccc(F)c(F)c3)C1)CC2 (stereo partly drawn)
Result: 27.5

---

target: NK1 (Homo sapiens); experiment: Signal transduction (ST), intracellular Ca++ (FLIPR), functional NK1 antagonistic activity; assay type: cell-based; details: antagonist, read-out: NK1 pIC50 (converted)
READOUT_TYPE: log10 of IC50 (log10 of the value in nM)
# log10 transformed; quantity=IC50; unit=nM

Consider the reported log10 of IC50 for these molecules:
O=C(c1ccsc1)N1CCC2(CC1)CCN([C@H]1CCN(C(=O)c3cc(C(F)(F)F)cc(C(F)(F)F)c3)[C@H](Cc3ccc(F)c(F)c3)C1)CC2 :: 1.62
COc1ccc(S(=O)(=O)N2CCC3(CCN([C@H]4CCN(C(=O)c5cc(C(F)(F)F)cc(C(F)(F)F)c5)[C@H](Cc5ccccc5)C4)CC3)CC2)cc1OC :: 1.65
O=C(c1cc(C(F)(F)F)cc(C(F)(F)F)c1)N1CC[C@H](N2CCC3(CC2)CCN(S(=O)(=O)c2cc(Cl)cc(Cl)c2)CC3)C[C@H]1Cc1ccccc1 :: 2.56
O=C(c1cc(C(F)(F)F)cc(C(F)(F)F)c1)N1CC[C@H](N2CCC3(CC2)CCN(S(=O)(=O)c2ccc(Cl)cc2Cl)CC3)C[C@H]1Cc1ccccc1 :: 2.74

Problem: Need log10 of IC50 of O=C(C1CCOC1)N1CCCC2(CCCN(C3CCN(C(=O)c4cc(C(F)(F)F)cc(C(F)(F)F)c4)C(Cc4ccccc4)C3)C2)C1 (single isomer, unassigned) [Compound 210] , thanks.
Result: 2.46

---

Target: NK2 (Homo sapiens, UniProt P21452)
Sequence (P21452 1-398): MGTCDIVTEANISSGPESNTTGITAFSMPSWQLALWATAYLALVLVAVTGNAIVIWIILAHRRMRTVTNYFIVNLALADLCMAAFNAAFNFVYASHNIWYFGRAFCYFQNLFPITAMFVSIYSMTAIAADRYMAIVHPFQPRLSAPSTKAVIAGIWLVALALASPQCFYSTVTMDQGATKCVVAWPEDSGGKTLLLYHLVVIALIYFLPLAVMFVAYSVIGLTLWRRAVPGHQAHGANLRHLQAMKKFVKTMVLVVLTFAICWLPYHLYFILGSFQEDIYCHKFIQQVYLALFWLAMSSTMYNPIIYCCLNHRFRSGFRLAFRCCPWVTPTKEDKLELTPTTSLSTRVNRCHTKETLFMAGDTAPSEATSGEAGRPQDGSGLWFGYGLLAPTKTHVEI
Assay: Signal transduction (ST), intracellular Ca++ (FLIPR), NK2
Format: cell-based
Conditions: antagonist, read-out: NK2 pIC50 (converted)
READOUT_TYPE: IC50 (µM)
Write the value in µM as a bare number.

Consider the reported IC50 for these molecules:
O=C1CCC(C(=O)N2CCC3(CC2)CCN(C2CCN(C(=O)c4cc(C(F)(F)F)cc(C(F)(F)F)c4)C(Cc4ccccc4)C2)CC3)N1 (stereo not drawn) [Compound 4] :: 1.55
Cc1nnsc1C(=O)N1CCC2(CC1)CCN([C@H]1CCN(C(=O)c3cc(C(F)(F)F)cc(C(F)(F)F)c3)[C@H](Cc3ccccc3)C1)CC2 [Compound 36] :: 4.27
O=C(c1cc(C(F)(F)F)cc(C(F)(F)F)c1)N1CC[C@H](CN2CCC3(CCN(Cc4ccccc4)CC3)CC2)C[C@H]1Cc1ccccc1 [Compound 178] :: 4.9

Now examine the next entry.
Problem: Lookup: IC50 / NK2 (Homo sapiens, UniProt P21452) / O=C(C1CC1)N1CCC2(CC1)CCN(C1CCN(C(=O)c3cc(Cl)cc(Cl)c3)C(Cc3ccccc3)C1)CC2 (stereo not drawn) [Compound 155]
Result: 6.46

---

molecular target: NK1 (Homo sapiens); assay: Signal transduction (ST), intracellular Ca++ (FLIPR), functional NK1 antagonistic activity; assay type: cell-based; conditions: antagonist, read-out: NK1 pIC50 (converted)
Measured IC50, listed per entry for reference.
Write the value in nM as a bare number.

COc1ccc(S(=O)(=O)N2CCC3(CCN([C@H]4CCN(C(=O)c5cc(C(F)(F)F)cc(C(F)(F)F)c5)[C@H](Cc5ccccc5)C4)CC3)CC2)cc1 [Compound 121] :: 112
O=C(c1cc(C(F)(F)F)cc(C(F)(F)F)c1)N1CC[C@H](N2CCC3(CC2)CCN(S(=O)(=O)c2cc(Cl)c(Cl)s2)CC3)C[C@H]1Cc1ccccc1 [Compound 96] :: 468
CC(C)(C)OC(=O)N1CCCC1C(=O)N1CCC2(CC1)CCN(C(=O)[C@H]1CCN(C(=O)c3cc(C(F)(F)F)cc(C(F)(F)F)c3)[C@H](Cc3ccccc3)C1)CC2 (some centres unmarked) [Compound 188] :: 15.1
O=C(Cc1ccsc1)N1CCC2(CC1)CCN([C@H]1CCN(C(=O)c3cc(C(F)(F)F)cc(C(F)(F)F)c3)[C@H](Cc3ccccc3)C1)CC2 [Compound 76] :: 25.7

Now examine the next entry.
Problem: Need IC50 of O=C(c1cc(C(F)(F)F)cc(C(F)(F)F)c1)N1CC[C@H](N2CCC3(CC2)CCN(S(=O)(=O)c2cc(Br)c(Br)s2)CC3)C[C@H]1Cc1ccccc1 [Compound 98] , thanks.
Result: 977

---

Measured IC50, listed per entry for reference.
molecular target: UniProt:P29371; experiment: Signal transduction (ST), intracellular Ca++ (FLIPR), NK3; type: cell-based; conditions: antagonist, read-out: NK3 pIC50 (converted)
Sequence (P29371 whole entry): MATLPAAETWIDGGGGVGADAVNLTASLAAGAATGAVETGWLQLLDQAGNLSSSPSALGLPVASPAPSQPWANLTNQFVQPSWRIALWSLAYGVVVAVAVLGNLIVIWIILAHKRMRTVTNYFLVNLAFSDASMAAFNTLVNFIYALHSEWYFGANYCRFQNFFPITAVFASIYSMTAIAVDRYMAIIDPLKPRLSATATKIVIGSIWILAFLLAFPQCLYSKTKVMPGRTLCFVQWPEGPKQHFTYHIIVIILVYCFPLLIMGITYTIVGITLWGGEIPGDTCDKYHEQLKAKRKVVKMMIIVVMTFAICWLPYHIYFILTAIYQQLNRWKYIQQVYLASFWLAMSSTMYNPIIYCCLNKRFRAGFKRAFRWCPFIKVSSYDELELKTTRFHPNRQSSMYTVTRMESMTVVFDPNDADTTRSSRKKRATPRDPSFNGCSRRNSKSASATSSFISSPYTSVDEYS

Consider the reported IC50 for these compounds:
Cc1cc(=O)oc(C)c1C(=O)N1CCC2(CC1)CCN([C@H]1CCN(C(=O)c3cc(C(F)(F)F)cc(C(F)(F)F)c3)[C@H](Cc3ccccc3)C1)CC2 :: > 10 µM
O=C(C1CCOC1)N1CCC2(CC1)CCN(C(=O)[C@H]1CCN(C(=O)c3cc(C(F)(F)F)cc(C(F)(F)F)c3)[C@H](Cc3ccccc3)C1)CC2 (stereo partly shown) :: > 10 µM
C/C(=C\C(=O)N1CCC2(CC1)CCN([C@H]1CCN(C(=O)c3cc(C(F)(F)F)cc(C(F)(F)F)c3)[C@H](Cc3ccccc3)C1)CC2)C(F)(F)F :: > 10 µM
Cc1ccoc1C(=O)N1CCC2(CC1)CCN([C@H]1CCN(C(=O)c3cc(C(F)(F)F)cc(C(F)(F)F)c3)[C@H](Cc3ccccc3)C1)CC2 :: > 10 µM
O=C1CCC(C(=O)N2CCC3(CC2)CCN([C@H]2CCN(C(=O)c4cc(C(F)(F)F)cc(C(F)(F)F)c4)[C@H](Cc4ccccc4)C2)CC3)=NN1 :: > 10 µM
Cc1noc(C)c1CN1CCC2(CCN([C@@H]3CCN(C(=O)c4cc(C(F)(F)F)cc(C(F)(F)F)c4)[C@H](Cc4ccccc4)C3)CC2)CC1=O :: ~10 µM
O=C(C1CCOC1)N1CCCC2(CCN([C@H]3CCN(C(=O)c4cc(C(F)(F)F)cc(C(F)(F)F)c4)[C@H](Cc4ccccc4)C3)CC2)C1 (stereo partly shown) :: > 10 µM
O=C(c1ccc[nH]c1=O)N1CCC2(CC1)CCN([C@H]1CCN(C(=O)c3cc(C(F)(F)F)cc(C(F)(F)F)c3)[C@H](Cc3ccccc3)C1)CC2 :: > 10 µM
O=C(C1=COCCC1)N1CCC2(CC1)CCN([C@H]1CCN(C(=O)c3cc(C(F)(F)F)cc(C(F)(F)F)c3)[C@H](Cc3ccccc3)C1)CC2 :: > 10 µM
O=C(c1cccnc1)N1CCC2(CC1)CCN([C@H]1CCN(C(=O)c3cc(C(F)(F)F)cc(C(F)(F)F)c3)[C@H](Cc3ccccc3)C1)CC2 :: > 10 µM

Problem: Need IC50 of `O=C(c1ccccn1)N1CCC2(CC1)CCN([C@H]1CCN(C(=O)c3cc(C(F)(F)F)cc(C(F)(F)F)c3)[C@H](Cc3ccccc3)C1)CC2` , thanks.
Result: > 10 µM

Problem: Need IC50 of `O=C(c1ccc2c(c1)OCO2)N1CCC2(CC1)CCN([C@H]1CCN(C(=O)c3cc(C(F)(F)F)cc(C(F)(F)F)c3)[C@H](Cc3ccccc3)C1)CC2` , thanks.
Result: > 10 µM

Problem: Need IC50 of `COc1ccc(OC)c(S(=O)(=O)N2CCC3(CCN([C@H]4CCN(C(=O)c5cc(C(F)(F)F)cc(C(F)(F)F)c5)[C@H](Cc5ccccc5)C4)CC3)CC2)c1` , thanks.
Result: > 10 µM
